protocol-summary: Phase 1 first-in-human study (NCT04178902): pharmacokinetics
Assay type: in vivo
test-context: human, plasma, intravenous, 0.32 mg/kg, Cycle 1 day 1, dose level 0.32 mg/kg (only half of this dose given), N=2, individual values
metric-name: AUC(0-inf) (ng·h/mL)
Report the figure in ng·h/mL without appending any unit label.

Task: Give reported AUC(0-inf) value for Cc1c(Cl)c2c(Cl)c(C)c1-c1c(-c3ccc(F)cc3)sc3ncnc(c13)O[C@@H](C(=O)O)Cc1cc(ccc1OCc1ccnc(-c3ccc(OC[C@H]4COCCO4)cc3)n1)OC[C@@H](CN1CCN(C)CC1)O2
Result: 167

----------
system: BCL-2 (Homo sapiens, UniProt P10415)
Sequence (P10415 whole entry): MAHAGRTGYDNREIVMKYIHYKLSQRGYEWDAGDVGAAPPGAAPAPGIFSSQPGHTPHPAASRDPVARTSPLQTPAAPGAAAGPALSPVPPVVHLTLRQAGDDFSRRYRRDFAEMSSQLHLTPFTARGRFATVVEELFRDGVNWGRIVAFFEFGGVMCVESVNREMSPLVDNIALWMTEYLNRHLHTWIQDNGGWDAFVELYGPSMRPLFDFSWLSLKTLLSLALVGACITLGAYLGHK
protocol-summary: Time-resolved FRET binding assay
test-context: read-out: TR-FRET, Ki, nM BCL-2
metric-name: Ki (nM)
Answer in nM, number only, no unit symbol.

Task: Entry COc1ccccc1-c1nccc(COc2ccccc2CC(Oc2ncnc3sc(-c4ccc(F)cc4)c(-c4ccc(OCCN5CCN(C)CC5)c(Cl)c4C)c23)C(=O)O)n1 (centres unmarked) [Compound 1, reference compound] needs its Ki filled in; supply it.
Result: 599
